Measured Cells stained (%) accompanies every entry in the list below.
# target.or.test.system: T1, PTPRG, endogenous in H929 multiple myeloma cells (human, UniProt P23470 20-1445)
# T1 construct: Native protein on H929 cells (flow cytometry, siRNA knockdown) and in H929 lysates (IP/MS); also called phosphatase receptor type γ
# T1 sequence (P23470 20-1445 limits assumed): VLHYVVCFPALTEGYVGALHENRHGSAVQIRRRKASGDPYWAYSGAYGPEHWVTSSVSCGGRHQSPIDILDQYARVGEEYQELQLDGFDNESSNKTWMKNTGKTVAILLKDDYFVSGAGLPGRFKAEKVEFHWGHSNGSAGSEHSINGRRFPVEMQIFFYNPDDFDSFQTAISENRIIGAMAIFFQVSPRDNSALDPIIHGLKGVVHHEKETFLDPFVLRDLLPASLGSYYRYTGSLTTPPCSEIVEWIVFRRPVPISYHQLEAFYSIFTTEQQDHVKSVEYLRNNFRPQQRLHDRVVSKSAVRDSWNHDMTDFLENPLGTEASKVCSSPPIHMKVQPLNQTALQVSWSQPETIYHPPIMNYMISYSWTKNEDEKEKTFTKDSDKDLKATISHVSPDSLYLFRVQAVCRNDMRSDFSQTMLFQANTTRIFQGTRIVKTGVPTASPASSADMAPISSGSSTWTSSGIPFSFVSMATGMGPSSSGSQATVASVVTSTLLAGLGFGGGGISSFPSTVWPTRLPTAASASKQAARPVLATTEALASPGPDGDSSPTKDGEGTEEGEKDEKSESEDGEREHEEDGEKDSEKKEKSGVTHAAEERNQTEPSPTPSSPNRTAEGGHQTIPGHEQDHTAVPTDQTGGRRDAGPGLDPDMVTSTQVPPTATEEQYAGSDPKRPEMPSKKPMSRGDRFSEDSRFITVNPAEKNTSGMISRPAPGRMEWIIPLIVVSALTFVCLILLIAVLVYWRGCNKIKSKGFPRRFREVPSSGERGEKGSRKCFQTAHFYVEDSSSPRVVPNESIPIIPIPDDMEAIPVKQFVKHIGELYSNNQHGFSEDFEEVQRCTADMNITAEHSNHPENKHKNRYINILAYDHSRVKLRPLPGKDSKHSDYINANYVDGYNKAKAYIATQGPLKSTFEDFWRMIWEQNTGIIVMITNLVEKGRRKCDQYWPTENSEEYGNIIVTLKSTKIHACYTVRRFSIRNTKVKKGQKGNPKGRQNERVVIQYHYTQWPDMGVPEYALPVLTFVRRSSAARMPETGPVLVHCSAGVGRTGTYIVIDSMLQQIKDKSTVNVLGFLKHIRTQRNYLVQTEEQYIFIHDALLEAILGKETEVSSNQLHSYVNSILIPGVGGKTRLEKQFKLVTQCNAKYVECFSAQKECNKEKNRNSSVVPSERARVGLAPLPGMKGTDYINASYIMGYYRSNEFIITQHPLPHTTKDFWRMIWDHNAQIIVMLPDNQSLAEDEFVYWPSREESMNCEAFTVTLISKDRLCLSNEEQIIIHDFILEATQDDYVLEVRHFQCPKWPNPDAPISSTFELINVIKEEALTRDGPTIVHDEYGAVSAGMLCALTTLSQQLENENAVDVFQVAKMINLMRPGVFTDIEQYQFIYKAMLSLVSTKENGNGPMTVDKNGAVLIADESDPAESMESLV
# procedure.text: flow cytometry, H929 + vehicle; None 2.74
Give the quantity in %, number only.

[[record]]
binder = "HW-17 chimeric rabbit-human IgG1 LA/LA/PG (antibody, V domains shown, Fc-silenced (L234A/L235A/P329G) IgG1, lambda; Alexa Fluor 647-labeled in single-step flow cytometry; Cluster C-1) VH: QSLGESRGRLVTPDETLTLTCTVSGIDLSSNAMSWVRQAPGEGLEWIGTINTGGRAYYASWAKGRFTISRTSTTVDLKMTSLTTEDTATYFCARERYSDGRAYDIWGPGTLVTISS VL: SFVLTQPASVQVNLGQTVSLTCTADTLSRRYASWYQQKPGQAPVLLIYTDSNRPSGIPDRFSGSSSGNTATLTISGAQAGDEADYYCATDDGSGSIYQYVFGGGTQLTVTG"
measure_name = "Cells stained (%)"
measurement_unit = "%"
value_reported = 99.3

[[record]]
binder = "TH9-0022 (antibody, human IgG1, kappa, L234A L235A, V domains shown, also called TH9-022; negative control) VH: QSLEESGGRLVTPGTPLTLTCTVSGFSLSSYAMNWVRQAPGKGLEWIGIINSYGSTYYASWAKGRFTISKTSTTVDLKITSPTTEDTATYFCARVTYDSYGYGYAPYGMDLWGPGTLVTVSS VL: LVMTQTPSSTSNAVGGTVTIKCQASQSIGNVLAWYQQKPGQPPKLLIYAASTLASGVPSRVGGSRSGTEYTLTISGVQREDAATYYCLGSDSDSDIAFGGGTELEILR"
measure_name = "Cells stained (%)"
measurement_unit = "%"
value_reported = 2.62


Now examine the next entry.
Q: // query Cells stained (%) value for entry HW-42 chimeric rabbit-human IgG1 LA/LA/PG (antibody, V domains shown, Fc-silenced (L234A/L235A/P329G) IgG1, lambda; Alexa Fluor 647-labeled in single-step flow cytometry; Cluster C-1) VH: QSVKESEGGLFKPADTLTLTCTVSGFSLSSNEISWVRQAPGEGLEYIGIIDTGGRAYYAVWARSRSTITRNTNLNTVTLKMTSLTAADTATYFCARGGVDTEWYAFSSWGPGTLVTVPS VL: SFVLTQPASVQVNLGQTVSLTCTADTLSRRYASWYQQKPGQAPVLLIFRDTSRPSGVPDRFSGSSSGDTATLTISGAQAGDEADYYCATSDGSGSNYQYVFGGGTQLTVTG
A: 97.5
